Assay: Solubility of drug in water
Type: physicochemical
For each entry below, report its solubility value.

Data request: Read the entry `Cc1onc(-c2ccccc2)c1-c1ccc(S(N)(=O)=O)cc1` and write its reported solubility.
Data returned: ~10 µg/mL

Data request: Read the entry `CCOC(=O)N1c2ccc(C(F)(F)F)cc2[C@@H](N(Cc2cc(C(F)(F)F)cc(C(F)(F)F)c2)C(=O)OC)C[C@H]1CC` and write its reported solubility.
Data returned: < 0.1 µg/mL

* * *

Assay: Log P
Assay type: physicochemical
Details: octanol/water
quantity_kind: logP

Data request: Read the entry `Cc1onc(-c2ccccc2)c1-c1ccc(S(N)(=O)=O)cc1` and write its reported logP.
Data returned: ~3
